The measurements presented in this section are drawn from ChEMBL document CHEMBL1158028.

System: HT-29
Assay: Cytotoxicity against human HT-29 cells by MTT assay
Format: functional, cell-based
property.measured: IC50 (µg/mL)
Dear colleague, please return just the value in µg/mL, with no unit written.

Examples from the recorded data:
| compound | IC50 / µg/mL |
| --- | --- |
| CC(C)=CC(=O)O[C@H]1CC(C)(C)C[C@H]2C3=CC[C@@H]4[C@@]5(C)CC[C@H](O[C@@H]6O[C@H](C(=O)O)[C@@H](O[C@H]7O[C@H](C)[C@@H](O)[C@H](O)[C@@H]7O)[C@H](O)[C@H]6O[C@@H]6O[C@H](CO)[C@@H](O)[C@H](O)[C@H]6O)C(C)(C)[C@@H]5CC[C@@]4(C)[C@]3(C)[C@@H](O)[C@@H](O)[C@@]12CO | 40 |
| CC(=O)OC1[C@H](OC(=O)C=C(C)C)[C@]2(CO)[C@H](O)[C@H](O)[C@]3(C)C(=CC[C@@H]4[C@@]5(C)CC[C@H](O[C@@H]6O[C@H](C(=O)O)[C@@H](O)[C@H](O)[C@H]6O[C@H]6O[C@H](C)[C@@H](O)[C@H](O)[C@@H]6O)C(C)(C)[C@@H]5CC[C@]43C)[C@@H]2CC1(C)C (stereo partly drawn) | 40 |

Now for the compound whose IC50 we want.
Query :: Answer with the recorded IC50 for the compound listed here: `CC(C)=CC(=O)O[C@H]1CC(C)(C)C[C@H]2C3=CC[C@@H]4[C@@]5(C)CC[C@H](O[C@@H]6O[C@H](C(=O)O)[C@@H](O)[C@H](O)[C@H]6O[C@H]6O[C@H](C)[C@@H](O)[C@H](O)[C@@H]6O)C(C)(C)[C@@H]5CC[C@@]4(C)[C@]3(C)[C@@H](O)[C@@H](O)[C@@]12CO`
Result :: 40

====

The molecules listed here are annotated with their IC50.
Tested on: HT-29
Experiment: Cytotoxicity against human HT-29 cells by MTT assay
Format: functional, cell-based

| smi | result |
| --- | --- |
| C/C=C(/C)C(=O)O[C@H]1[C@H](O)C(C)(C)C[C@H]2C3=CC[C@@H]4[C@@]5(C)CC[C@H](O[C@@H]6O[C@H](C(=O)O)[C@@H](O)[C@H](O)[C@H]6O[C@H]6O[C@H](C)[C@@H](O)[C@H](O)[C@@H]6O)C(C)(C)[C@@H]5CC[C@@]4(C)[C@]3(C)[C@@H](O)[C@@H](O)[C@]21COC(C)=O | > 100 µg/mL |
| C/C=C(/C)C(=O)O[C@H]1[C@H](O)C(C)(C)C[C@H]2C3=CC[C@@H]4[C@@]5(C)CC[C@H](O[C@@H]6O[C@H](C(=O)O)[C@@H](O[C@@H]7O[C@@H](C)[C@H](O)[C@@H](O)[C@H]7O)[C@H](O)[C@H]6O[C@H]6O[C@@H](CO)[C@H](O)[C@@H](O)[C@@H]6O)C(C)(C)[C@@H]5CC[C@@]4(C)[C@]3(C)[C@@H](O)[C@@H](O)[C@]21CO | > 100 µg/mL |
| C/C=C(/C)C(=O)O[C@H]1[C@H](O)C(C)(C)C[C@H]2C3=CC[C@@H]4[C@@]5(C)CC[C@H](O[C@@H]6O[C@H](C(=O)O)[C@@H](O)[C@H](O)[C@H]6O[C@H]6O[C@H](C)[C@@H](O)[C@H](O)[C@@H]6O)C(C)(C)[C@@H]5CC[C@@]4(C)[C@]3(C)[C@@H](O)[C@@H](O)[C@]21CO | 40 µg/mL |

Now for the molecule whose IC50 we want.
Query :: Answer with the recorded IC50 for the molecule listed here: `C/C=C(/C)C(=O)O[C@H]1[C@H](OC(C)=O)C(C)(C)C[C@H]2C3=CC[C@@H]4[C@@]5(C)CC[C@H](O[C@@H]6O[C@H](C(=O)O)[C@@H](O)[C@H](O)[C@H]6O[C@H]6O[C@H](C)[C@@H](O)[C@H](O)[C@@H]6O)C(C)(C)[C@@H]5CC[C@@]4(C)[C@]3(C)[C@@H](O)[C@@H](O)[C@]21CO`
Result :: 40 µg/mL
